Biological target: T1, mouse UHRF1 PHD finger (residues 304–372) L337A (mouse, UniProt Q8VDF2 304-372, L337A)
T1 sequence (looked up): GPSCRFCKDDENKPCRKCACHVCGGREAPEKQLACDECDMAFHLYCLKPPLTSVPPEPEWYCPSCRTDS
Experiment: ITC
pKd: −log10 of the molar value.
observable: pKd

>  <binder>
mDPPA3 residues 76–127 followed by an additional Trp (mDPPA3 76–128W) (domain or fragment, mouse) RREVQSAFPKRRVRTLLSVLKDPIAKMRRLVRIEQRQKRLEGNEFERDSEPFW

>  <observable>
pKd

>  <result>
< 4.37

$$$$
